test system: EKVX; test: NCI tumour cell line growth inhibition, 48 h
Calls of active or inactive are those of the source. No stated cut-off is given here; in the data, active = GI50 up to about 1.1 µM and inactive = higher.
// reported GI50 per item

Sample answers from the record:
Oc1cc(Br)cc2cccnc12	2.09 µM (inactive)
O=C1C(CN2CCCCC2)CCCC1CN1CCCCC1 (configuration not stated)	16.2 µM (inactive)
Oc1ccc(-c2nc3cc(C(F)(F)F)ccc3n2CC2CCCN3CCCCC23)cc1 (configuration not stated)	14.8 µM (inactive)
CCCCOC(=O)CNC(=O)OC/C=C/C#CC#C/C=C/COC(=O)NCC(=O)OCCCC	> 10 µM (inactive)

Tested on EKVX, the item CC#CCCCC1(C)CCCNC1=S (configuration not stated) showed GI50 equal to > 10 µM (inactive)

Record COc1ccc2c(c1)C(=O)C1CC(=O)CCC21 (configuration not stated) has EKVX GI50 equal to > 100 µM (inactive)

# GI50 measured on EKVX for item CC(O)(P(=O)(O)O)P(=O)(O)OCC(O)CN1CCOCC1 (configuration not stated) = > 100 µM (inactive)

----------
tested on: UO-31; experiment: NCI tumour cell line growth inhibition, 48 h
Calls of active or inactive are those of the source. Rule as the data show it: active = GI50 up to about 1.1 µM and inactive = higher.
Quick reference: GI50 of the listed items.

Given item NS(=O)(=O)c1ccc(NC2=CC(=O)C(=O)c3ccccc32)cc1 , the value recorded as its GI50 is > 100 µM (inactive)

The value of GI50 measured for the compound COc1cc([N+](=O)[O-])c(S(=O)(=O)O)cc1NS(=O)(=O)c1ccc(C)cc1 turned out to be > 100 µM (inactive)

Record Nc1ccc(Oc2ccc(C3(c4ccc(Oc5ccc(N)c(O)c5)cc4)C4CC5C6CC7CC5C3C(C7)C6C4)cc2)cc1O , field GI50: 2.04 µM (inactive)

The value of GI50 measured for the compound CCC12CC[C@H](C#N)N3CCc4c(n(c5ccccc45)C(=O)C1)C32 (some centres undefined) turned out to be 3.1 µM (inactive)

----------
tested on: SF-295; assay: NCI tumour cell line growth inhibition, 48 h
Calls of active or inactive are those of the source. Cut-off read from the data, not from the text of the source: active = GI50 up to about 1.1 µM and inactive = higher.
Could you please pick one outcome from this set? YES = active, NO = inactive

Cc1ccc2c(O)cc(-c3cc4ccccc4s3)nc2n1	NO
Cn1/c(=N\c2ccc(Cl)cc2)sc2ccccc21	NO

Prompt: Test call for this compound, please: NC(=O)OCC(COc1ccc(Cl)cc1)OC(=O)c1cc([N+](=O)[O-])cc([N+](=O)[O-])c1 (stereo not drawn)
Response: NO

Prompt: Which outcome was assigned to CCCC1(N2C(=O)c3ccc4c5c(ccc(c35)C2=O)N(C2(CCC)CCCCC2)C4=O)CCCCC1 in this test?
Response: NO

Prompt: Test call, this compound: Cc1cccc(Nc2cn(CCOc3ccccc3)c(=O)n(CCOc3ccccc3)c2=O)c1
Response: NO

Prompt: Can you look up the reported call for CC(NC(=O)C(N)CC(=O)O)NC(=O)N1CCCC1 (stereo not drawn) for me?
Response: NO

----------
test system: IGROV-1; experiment: NCI tumour cell line growth inhibition, 48 h
The source made the active and inactive calls. Cut-off read from the data, not from the text of the source: active = GI50 up to about 1.1 µM and inactive = higher.
Just give me one of these, please: 1.0 = active, 0.0 = inactive

Prompt: Test call for this compound, please: CN(C)/C=C/C(=O)c1cccc(C(=O)/C=C/N(C)C)n1
Response: 0.0

Prompt: What is the recorded call for this compound in the test? O=C(O)CN1CCNCCN(CP(=O)(O)O)CC1
Response: 0.0

Prompt: Just curious, what result did CCOCc1nc2c(OC)c(-c3nc4ccc(N5CCN(C)CC5)cc4[nH]3)cc(OC)c2[nH]1 get here?
Response: 0.0

Prompt: Assay outcome for C/C(=N/NC(=S)Nc1cccc(Cl)c1)c1ccccn1 : what was it?
Response: 1.0
